assayReadout: melting point

| molecule | experimentalResult |
| --- | --- |
| C(=C\c1ccc2c(c1)COC(N[C@@H]1CCc3ccccc31)=N2)/c1ccccc1 | 162 °C |
| N#Cc1cn(N(CO)c2c(Cl)cc(Cl)cc2Cl)c(=O)[nH]c1=O | > 300 °C |
| CCN(c1ccccc1C)S(=O)(=O)c1cc([N+](=O)[O-])ccc1C | 78 to 80 °C |
| CCCCCCCCCCCCCCCCCC(=O)NCCOC(=O)CCc1cc(C(C)(C)C)c(O)c(C(C)(C)C)c1 | 52 to 55 °C |
| Clc1ccc2c(Br)ccnc2c1 | 102 to 103 °C |
| COC(=O)c1[nH]nc2c1C(C)Cc1cc(OC)ccc1-2 (centres undefined) | 163 °C |
| CCCCCCCCCCCCCCn1nnc(NC(=O)Nc2c(C(C)C)cccc2C(C)C)n1 | 112 to 114 °C |
| CN1Cc2c(-c3nc(C4CC4)no3)ncn2-c2ccc(F)cc2C1=O | 216 to 217 °C |
| CC(=O)OC1CCC2(C)C(=CCC3C2C(OC(C)=O)CC2(C)C3CCC2(O)C(=O)CO)C1 (centres undefined) | 231 to 233 °C |
| O=C1c2ccccc2C(=O)N1CC(=O)N(CC(=O)N1CCc2ccccc21)c1ccccc1 | 230 °C |
| COC(=O)c1ccc2c(-c3cccc(OC)c3)nc(=O)n(C(C)C)c2c1 | 164 to 167 °C |
| Clc1nc(N2CCCCC2)c2ncnc(Cl)c2n1 | 114 to 117 °C |
| Cc1c(CO)ncn1C(c1ccccc1)(c1ccccc1)c1ccccc1 | 255 to 260 °C |
| CCOC(=O)C(Cc1cc(Oc2c(Cl)cc(C(F)(F)F)cc2Cl)ccc1SC(F)(F)F)C(=O)OCC | 83 °C |
| O=Cc1ccn(C2=CC3=C(CC2)CCc2[nH]c(=O)c(=O)[nH]c23)c1 | > 250 °C |
| CC(=O)Oc1c2c(c3ccccc3c1OC(C)=O)N(C(C)=O)c1ccccc1S2 | 213 to 214 °C |
| O=C1N(Cc2cccnn2)c2ccccc2C12COc1cc3c(cc12)CCO3 (centres undefined) | 81 to 82 °C |
| CC1(C(N)=O)CCC=[N+]1[O-] (centres undefined) | 134 to 135 °C |
| CC(CCC(F)(F)C(C)(C)O)C1CCC2C3CCC4CC(O)CCC4(C)C3CCC12C (centres undefined) | 142 °C |
| CSC(C)=NOC(=O)NCSN(P1OCC(C)(C)CO1)C(C)(C)C | 167 to 168 °C |
| CCCc1cc2c(c(Br)c1O)CCO2 | 42 to 43 °C |
| CNS(=O)(=O)c1ccc([N+](=O)[O-])cc1[N+](=O)[O-] | 155 °C |
| ON=CNc1ccc(N2CCOCC2)nc1 | 172 to 174 °C |
| CS(=O)(=O)C1Cc2cc(Cl)ccc2C1=O (centres undefined) | 197 °C |
| COc1ccc(Cl)cc1C(=O)NCc1ccc(CC(=O)O)cc1 | 140 to 141 °C |
| CCC(=O)Nc1snc(N(CC)CC)c1C#N | 188 to 189 °C |
| CN1CCN(c2cccc3ccc(O)cc23)CC1 | 112 °C |
| O=C1NC(Cc2ccc(OCc3ccccc3)cn2)C(=O)NC1Cc1ccc(OCc2ccccc2)cc1 (centres undefined) | 200 to 202 °C |
| COc1ccc2c(c1)S(=O)(=O)C(C(=O)NCCCCCC(=O)O)C(=O)N2C (centres undefined) | 110 to 112 °C |
| COc1ccc(-c2cncc3cccc([N+](=O)[O-])c23)c(O)c1OC | 170 to 174 °C |
| CCn1nc(Br)c([N+](=O)[O-])c1Br | 119 to 121 °C |
| O=C1OC2(CC(c3cccc(Oc4ccccc4)c3)=NO2)c2ccccc21 (centres undefined) | 114 to 116 °C |
| O=C(Nc1cc(Cl)c(N2CCCC2)c(Cl)c1)c1ccc(F)c(OCc2cccnc2)c1 | 163 to 167 °C |
| CCN1CCc2ccc(Nc3ncc([N+](=O)[O-])c(Nc4ccccc4C(=O)NC)n3)cc2CC1 | 222 to 225 °C |

---

| molecule | melting point |
| --- | --- |
| CC1(C)OC(=S)Nc2c(Br)cc(-c3cc(F)cc(C#N)c3)cc21 | 219 to 220 °C |
| O=C(O)c1ccc(C(c2ccc(C(=O)O)c(C(=O)O)c2)(C(F)(F)F)C(F)(F)F)cc1C(=O)O | 231 to 234 °C |
| O=C(c1ccc(-c2ccc(Cl)cc2)o1)C1CC1 | 88 to 89 °C |
| COc1ccc(-c2nc(C(=O)OC(C)(C)C)c(-c3ccncc3)[nH]2)cc1 | 211 to 212 °C |
| COC(=O)c1cc(=O)n(-c2c(Cl)cc(C(F)(F)F)cc2Cl)[nH]1 | 245 to 246 °C |
| O=C(N[C@@H]1C(=O)N[C@@H]1C=Cc1ccccc1)OCc1ccccc1 | 201 to 204 °C |
| CCCC(=O)Nc1cccc(-c2cccc(OC)c2)c1 | 90 to 91 °C |
| O=C1c2ccccc2C(=O)c2c(NC(=O)[C@@H]3C[C@H]3c3ccccc3)ccc(NC(=O)[C@@H]3C[C@H]3c3ccccc3)c21 (relative stereo) | 272 to 274 °C |
| O=C(O)c1cc(C(=O)C(F)(F)F)cc2c1OC(c1ccccc1)(c1ccccc1)O2 | 187 °C |
| CCC(=O)N=C(NC(=O)OC)Nc1cc(Oc2ccccc2)ccc1NC(C)=O | 161 to 163 °C |

---

Quick reference: melting point of the listed items.

| compound | melting point |
| --- | --- |
| COc1cc(-c2ncc(C(F)(F)F)cc2F)c(F)cc1Cl | 79 to 80 °C |
| CC(C)c1cccc(C(C)C)c1NC(=O)CN[C@H](C)c1ccccc1 | 119 to 120 °C |
| N#Cc1cc(-c2ccccc2)c(C(=O)O)cn1 | 270 to 272 °C |
| O=C1NC(=O)C(Cc2ccc(O)cc2)S1 (centres undefined) | 151 to 152 °C |

---

assayReadout: melting point

| compound | assayReadout | experimentalResult |
| --- | --- | --- |
| COc1cc(O)c2c(c1)[C@H]1CN(C)CC[C@@H]1CC2=O (relative stereo) | melting point | > 250 °C |
| N#Cc1ccc(-c2cn(-c3ccc(C#N)cc3)c(SCc3cccnc3)n2)cc1 | melting point | 218 to 225 °C |
| CCC(=O)OC(C)c1ccc(O)cc1 (single isomer, unassigned; (+)) | melting point | 71 to 72 °C |
| COc1cccc2cc3c(c(-c4ccc5c(c4)OCO5)c12)CNC3=O | melting point | 295 to 298 °C |
| CCOP(C)(=O)CC(CCc1ccccc1)NS(=O)(=O)c1ccc(C)cc1 (configuration not stated) | melting point | 107 to 108 °C |
| NC(=O)c1cc(-c2ccc(Cl)cc2)sc1N | melting point | 255 to 257 °C |
| CN(C)S(=O)(=O)CC(CS(=O)(=O)c1ccc(Oc2ccc(OC(F)(F)F)cc2)cc1)N(O)C=O (configuration not stated) | melting point | 124 to 126 °C |

---

assayReadout: melting point

| compound | assayReadout | experimentalResult |
| --- | --- | --- |
| N=C(NO)c1ccc(Cl)nc1 | melting point | 185 to 186 °C |
| COc1cc(OC)c(C(=O)CBr)cc1C(=O)O | melting point | 236 °C |
| CNC(=O)NC(=O)C(CC1CCC(=O)C1)c1ccc(Cl)c(Cl)c1 (stereo not given) | melting point | 70 to 74 °C |
| CN(C)C(=O)[C@@H]1CCCN1C(=O)OCc1ccccc1 | melting point | 66 to 67 °C |
| CCCCCCCCCCOc1ccc(OCc2ccccc2)c(C(=O)O)c1 | melting point | 63 to 65 °C |
| CCOP(=O)(OCC)C(c1ccccc1)N(CCCl)C(N)=O (stereo not given) | melting point | 82 °C |
| COc1ccc(C=Cc2nc3c([nH]2)c(=O)n(C)c(=O)n3C)cc1 | melting point | > 320 °C |
| CCOC(=O)c1nc(N)nc(N)c1-c1ccc(Cl)cc1Cl | melting point | 178 °C |
| COc1ccc(CCN2CCCC(CO)C2)cc1OC (stereo not given) | melting point | 87.5 to 89 °C |
| NS(=O)(=O)c1ccc(NS(=O)(=O)/C=C/c2ccccc2)cc1 | melting point | 171 to 173 °C |
| O=C(Nc1ccc(-n2nc(C(F)(F)F)cc2C(F)(F)F)cc1)c1ccccc1C(F)(F)F | melting point | 133 to 135 °C |
| CN(C[C@H]1CC[C@H](c2nc3ccccc3[nH]2)CC1)C(=O)OCc1ccccc1 | melting point | 146 to 148 °C |
| Oc1cc(F)cc(C2(O)CCOCC2)c1 | melting point | 158 to 160 °C |
| CS(=O)(=O)c1ccc(-c2cc(C(=O)c3ccc(Cl)cc3Cl)sc2N2CCOCC2)cc1 | melting point | 170 °C |
| CC(=O)N(C)c1cccc(-c2ccnc3c(Cl)cnn23)c1 | melting point | 163 to 165 °C |
